Every entry's value here was drawn from the RNAGym collection of RNA variant scans (doi:10.1093/molbev/msab373).

B1: Azoarcus group I ribozyme (parent)
chain: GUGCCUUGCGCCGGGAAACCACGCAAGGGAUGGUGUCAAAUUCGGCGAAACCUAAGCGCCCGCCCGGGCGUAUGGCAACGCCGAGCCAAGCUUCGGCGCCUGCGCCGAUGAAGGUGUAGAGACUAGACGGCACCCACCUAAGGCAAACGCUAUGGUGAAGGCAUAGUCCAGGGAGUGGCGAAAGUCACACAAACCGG

variants of: B1; assay: reverse-splicing fitness (ratio to wild type); higher = more active; in vitro selection; Mg2+ level not given
Answer each item with its documented reverse-splicing fitness.
Numbers only.

variantDescription | recordedMeasurement
C82A A111U A120G A145C C150A | 0.00759
C82U A111G C150G C169U | 0.00811
C82G A111G A145C C150U C169G | 0.00753

Hi team, please reply with reverse-splicing fitness for each item in this list.
1. C82U A111C A120G A145C C150U C169U
2. C82U A111U A145G U176C
3. C82U A120C A145C C150G C169G U176G
4. C82A A111U A145U C150A
5. C82U A111U C169U U176C
6. A111C A120G A145C C150U C169U U176A
7. A120U C150A C169A U176G

1: 0.00593; 2: 0.159; 3: 0.00305; 4: 0.0253; 5: 0.013; 6: 0.0247; 7: 0.00205
